test system: HeLa; experiment: In vitro anticellular activity tested against HeLa S3 cells; format: functional, cell-based; conditions: Homo sapiens
pIC50: −log10 of the molar value.
Rule: 1 for pIC50 not less than 6, 0 for anything less.

smiles.representation: CO[C@@]12[C@H](COC(N)=O)C3=C(C(=O)C(CSc4nnnn4-c4ccccc4)=C(N)C3=O)N1C[C@@H]1N[C@@H]12
label.class: 1
--
smiles.representation: CO[C@@]12[C@H](COC(N)=O)C3=C(C(=O)C(CSC(C)C)=C(N)C3=O)N1C[C@@H]1N[C@@H]12
label.class: 0
--
smiles.representation: CO[C@@]12[C@H](COC(N)=O)C3=C(C(=O)C(CSc4nncn4C)=C(N)C3=O)N1C[C@@H]1N[C@@H]12
label.class: 0
--
smiles.representation: CCCCOCC1=C(N)C(=O)C2=C(C1=O)N1C[C@@H]3N[C@@H]3[C@]1(OC)[C@@H]2COC(N)=O
label.class: 0

###

In this section we review reported IC50 values for a set of molecules.
system: HeLa; assay: In vitro anticellular activity tested against HeLa S3 cells; assay type: functional, cell-based; details: Homo sapiens
measured.quantity: IC50 (nM)

molecule: COC(=O)CCSCC1=C(N)C(=O)C2=C(C1=O)N1C[C@@H]3N[C@@H]3[C@]1(OC)[C@@H]2COC(N)=O
measured.quantity: IC50
result.unit: nM
readout.qualifier: =
numeric.readout: 970
//
molecule: CO[C@@]12[C@H](COC(N)=O)C3=C(C(=O)C(CSc4nccs4)=C(N)C3=O)N1C[C@@H]1N[C@@H]12
measured.quantity: IC50
result.unit: nM
readout.qualifier: =
numeric.readout: 1400
//
molecule: CO[C@@]12[C@H](COC(N)=O)C3=C(C(=O)C(CSCC4CC4)=C(N)C3=O)N1C[C@@H]1N[C@@H]12
measured.quantity: IC50
result.unit: nM
readout.qualifier: =
numeric.readout: 1100
//
molecule: CCCOCC1=C(N)C(=O)C2=C(C1=O)N1C[C@@H]3N[C@@H]3[C@]1(OC)[C@@H]2COC(N)=O
measured.quantity: IC50
result.unit: nM
readout.qualifier: =
numeric.readout: 5300
//
molecule: COc1ccc(SCC2=C(N)C(=O)C3=C(C2=O)N2C[C@@H]4N[C@@H]4[C@]2(OC)[C@@H]3COC(N)=O)cc1
measured.quantity: IC50
result.unit: nM
readout.qualifier: =
numeric.readout: 14000
//
molecule: CO[C@@]12[C@H](COC(N)=O)C3=C(C(=O)C(CSc4nnnn4C)=C(N)C3=O)N1C[C@@H]1N[C@@H]12
measured.quantity: IC50
result.unit: nM
readout.qualifier: =
numeric.readout: 120
//
molecule: CO[C@@]12[C@H](COC(N)=O)C3=C(C(=O)C(C[S+]([O-])C(C)C)=C(N)C3=O)N1C[C@@H]1N[C@@H]12 (some centres undefined)
measured.quantity: IC50
result.unit: nM
readout.qualifier: >
numeric.readout: 10000
//
molecule: CO[C@@]12[C@H](COC(N)=O)C3=C(C(=O)C(CSc4ccccn4)=C(N)C3=O)N1C[C@@H]1N[C@@H]12
measured.quantity: IC50
result.unit: nM
readout.qualifier: =
numeric.readout: 1800
//
molecule: CO[C@@]12[C@H](COC(N)=O)C3=C(C(=O)C(CSc4ccccc4Cl)=C(N)C3=O)N1C[C@@H]1N[C@@H]12
measured.quantity: IC50
result.unit: nM
readout.qualifier: =
numeric.readout: 7300
